System: EMC-BAC-2
Assay comment: relative viability (nuclei count vs DMSO), 5 days (fraction); higher = more cells survive
Condition description: first compound 0.3162 µM
Endpoint: relative viability
Give bare numbers.

Consider the following illustrative entries.
Compound: CC(C)Oc1cc(Nc2nc(N[C@@H](C)c3ccc(F)cn3)ncc2Cl)n[nH]1 [AZ23] + CS(=O)(=O)CCNCc1ccc(-c2ccc3ncnc(Nc4ccc(OCc5cccc(F)c5)c(Cl)c4)c3c2)o1 [Lapatinib] (partner 2 µM)
relative viability: 0.922

Compound: CC(C)Oc1cc(Nc2nc(N[C@@H](C)c3ccc(F)cn3)ncc2Cl)n[nH]1 [AZ23] + Nc1ncn([C@H]2C[C@H](O)[C@@H](CO)O2)c(=O)n1 [Decitabine] (partner 2 µM)
relative viability: 0.949

input: Recall the reported relative viability of CC(C)Oc1cc(Nc2nc(N[C@@H](C)c3ccc(F)cn3)ncc2Cl)n[nH]1 [AZ23] + COc1cc2c(Oc3ccc(NC(=O)C4(C(=O)Nc5ccc(F)cc5)CC4)cc3F)ccnc2cc1OCCCN1CCOCC1 [Foretinib] (partner 0.25 µM) on EMC-BAC-2 and write it down.
output: 0.989

This collection of values is drawn from the supplement of paper PMC10307832.
